The values you see were collected from patent US6803486B2.

MEASURED TARGET: recombinant rat nNOS (Rattus norvegicus)
Construct: made in house; host or cells: E. coli
ASSAY OVERVIEW: NOS inhibition, hemoglobin capture assay, nNOS
Format: biochemical
MEASUREMENT PARAMETERS: Table 2; ratio of Ki (eNOS) to Ki (nNOS)
REPORTED ENDPOINT: Selectivity ENOS/nNOS

Exercise: Quick one: give measured Selectivity ENOS/nNOS for N=C(NCCC[C@H](N)CNc1cccc(N)c1)N[N+](=O)[O-] [Compound 15]
Solution: 36

Exercise: Quick one: give measured Selectivity ENOS/nNOS for N=C(NCCC[C@H](N)CNc1ccc(N)cc1)N[N+](=O)[O-] [Compound 16]
Solution: 51

Exercise: Quick one: give measured Selectivity ENOS/nNOS for N=C(NCCC[C@H](N)CNCc1cccnc1)N[N+](=O)[O-] [Compound 30]
Solution: 951

Exercise: Quick one: give measured Selectivity ENOS/nNOS for N=C(NCCC[C@H](N)CNc1ccc(CN)cc1)N[N+](=O)[O-] [Compound 25]
Solution: 299

Exercise: Quick one: give measured Selectivity ENOS/nNOS for N=C(NCCC[C@H](N)CNCCc1ccc(N)cc1)N[N+](=O)[O-] [Compound 22]
Solution: 230

Exercise: Quick one: give measured Selectivity ENOS/nNOS for N=C(NCCC[C@H](N)CNCCc1cccc(N)c1)N[N+](=O)[O-] [Compound 21]
Solution: 35

Exercise: Quick one: give measured Selectivity ENOS/nNOS for N=C(NCCC[C@H](N)CNc1ccccc1CN)N[N+](=O)[O-] [Compound 23]
Solution: 7.17

Exercise: Quick one: give measured Selectivity ENOS/nNOS for N=C(NCCC[C@H](N)CNCCc1ccccc1N)N[N+](=O)[O-] [Compound 20]
Solution: 22.1
